Tested on: 485368-065-R3-J5-PDC spheroids with HUVEC/MSC, viability
Assay: Anticancer human tumor 485368-065-R3-J5-PDC patient-derived pancreatic carcinoma cell line growth inhibition [RAS]
Conditions: second compound 1 µM; first compound 0.00949 µM; hits give low values
Each item that follows carries a reported viability, T/C.
metric: viability, T/C

INSERT INTO measurements (compound, metric, result) VALUES
  ('CCc1c2c(nc3ccc(O)cc13)-c1cc3c(c(=O)n1C2)COC(=O)[C@]3(O)CC + C#Cc1c(F)ccc2cc(O)cc(-c3ncc4c(N5CC6CCC(C5)N6)nc(OCC56CCCN5CC(F)C6)nc4c3F)c12', 'viability, T/C', '14.8%'),
  ('CC1(C)CCC(Nc2ncc(C(F)(F)F)c(-c3c[nH]c4c(P(C)(C)=O)c(C#N)ccc34)n2)CN1 (centres undefined) + C#Cc1c(F)ccc2cc(O)cc(-c3ncc4c(N5CC6CCC(C5)N6)nc(OCC56CCCN5CC(F)C6)nc4c3F)c12', 'viability, T/C', '40.7%'),
  ('CC1(C)CCC(Nc2ncc(C(F)(F)F)c(-c3c[nH]c4c(P(C)(C)=O)c(C#N)ccc34)n2)CN1 (centres undefined) + C=CC(=O)N1CCN(c2nc(OCC3CCCN3C)nc3c(F)c(-c4nc(N)cc(C)c4C(F)(F)F)c(Cl)cc23)C(C)C1', 'viability, T/C', '35.8%'),
  ('CCc1c2c(nc3ccc(O)cc13)-c1cc3c(c(=O)n1C2)COC(=O)[C@]3(O)CC + C=CC(=O)N1CCN(c2nc(OCC3CCCN3C)nc3c(F)c(-c4nc(N)cc(C)c4C(F)(F)F)c(Cl)cc23)C(C)C1', 'viability, T/C', '16.5%');

---

Tested on: 485368-065-R3-J5-PDC spheroids with HUVEC/MSC, viability
Experiment: Anticancer human tumor 485368-065-R3-J5-PDC cell line growth inhibition [RAS]; active = viability on the fitted dose curve at most 10% of control; inactive = the rest;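 further: spheroids exposed to agents for seven days before readout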
Conditions: second compound 0.0949 µM; first compound 10 µM
Labels: active, inactive

INSERT INTO assay_data (molecule, qualitative_label) VALUES
  ('C[C@@H](NC(=O)c1ncnc(N)c1Cl)c1ncc(C(=O)Nc2cc(C(F)(F)F)c(Cl)cn2)s1 + CCn1c(-c2cccnc2C(C)OC)c2c3cc(ccc31)N1CCOC(CC(NC(=O)C(C(C)C)N(C)C(=O)C3(F)CCN(C(=O)C#CC(C)(C)N(C)C)CC3)C(=O)N3CCCC(N3)C(=O)OCC(C)(C)C2)C1', 'inactive'),
  ('Cc1nc(N2CCC3(CC2)COC(C)C3N)c(CO)nc1Sc1ccnc(N)c1Cl (centres undefined) + CCn1c(-c2cc(N3CCN(C)CC3)cnc2C(C)OC)c2c3cc(ccc31)-c1csc(n1)CC(NC(=O)C1CC1C)C(=O)N1CCCC(N1)C(=O)OCC(C)(C)C2', 'active'),
  ('CCC(CC)c1cc(NC2CCC(N)C2)n2nccc2n1 (centres undefined) + CCn1c(-c2cccnc2C(C)OC)c2c3cc(ccc31)N1CCOC(CC(NC(=O)C(C(C)C)N(C)C(=O)C3(F)CCN(C(=O)C#CC(C)(C)N(C)C)CC3)C(=O)N3CCCC(N3)C(=O)OCC(C)(C)C2)C1', 'active'),
  ('CC(=O)OC12COC1CC(O)C1(C)C(=O)C(O)C3=C(C)C(OC(=O)C(O)C(NC(=O)OC(C)(C)C)c4ccccc4)CC(O)(C(OC(=O)c4ccccc4)C21)C3(C)C (centres undefined) + CCn1c(-c2cccnc2C(C)OC)c2c3cc(ccc31)N1CCOC(CC(NC(=O)C(C(C)C)N(C)C(=O)C3(F)CCN(C(=O)C#CC(C)(C)N(C)C)CC3)C(=O)N3CCCC(N3)C(=O)OCC(C)(C)C2)C1', 'inactive');

---

Each item that follows carries a reported viability, T/C.
Test system: 485368-065-R3-J5-PDC spheroids with HUVEC/MSC, viability
Experiment: Anticancer human tumor 485368-065-R3-J5-PDC cell line growth inhibition [RAS];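 further: spheroids exposed to agents for seven days before readout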
Conditions: second compound 0.3 µM; first compound 0.1 µM; hits give low values
metric: viability, T/C (%)

INSERT INTO assay_data (molecule, u, numeric_result) VALUES
  ('O=C(c1ccc(F)c(F)c1Nc1ccc(I)cc1F)N1CC(O)([C@@H]2CCCCN2)C1 + CCn1c(-c2cc(N3CCN(C)CC3)cnc2C(C)OC)c2c3cc(ccc31)-c1csc(n1)CC(NC(=O)C1CC1C)C(=O)N1CCCC(N1)C(=O)OCC(C)(C)C2', '%', 2.03),
  ('CC(=O)OC12COC1CC(O)C1(C)C(=O)C(O)C3=C(C)C(OC(=O)C(O)C(NC(=O)OC(C)(C)C)c4ccccc4)CC(O)(C(OC(=O)c4ccccc4)C21)C3(C)C (stereo not drawn) + CCn1c(-c2cc(N3CCN(C)CC3)cnc2C(C)OC)c2c3cc(ccc31)-c1csc(n1)CC(NC(=O)C1CC1C)C(=O)N1CCCC(N1)C(=O)OCC(C)(C)C2', '%', 7.09),
  ('CCC(CC)c1cc(NC2CCC(N)C2)n2nccc2n1 (stereo not drawn) + CCn1c(-c2cccnc2C(C)OC)c2c3cc(ccc31)N1CCOC(CC(NC(=O)C(C(C)C)N(C)C(=O)C3(F)CCN(C(=O)C#CC(C)(C)N(C)C)CC3)C(=O)N3CCCC(N3)C(=O)OCC(C)(C)C2)C1', '%', 111),
  ('CC1(O)CCCC1n1c(=O)c(C(F)F)cc2cnc(NC3CCN(S(C)(=O)=O)CC3)nc21 (stereo not drawn) + CCn1c(-c2cc(N3CCN(C)CC3)cnc2C(C)OC)c2c3cc(ccc31)-c1csc(n1)CC(NC(=O)C1CC1C)C(=O)N1CCCC(N1)C(=O)OCC(C)(C)C2', '%', 7.59),
  ('CC(=O)OC12COC1CC(O)C1(C)C(=O)C(O)C3=C(C)C(OC(=O)C(O)C(NC(=O)OC(C)(C)C)c4ccccc4)CC(O)(C(OC(=O)c4ccccc4)C21)C3(C)C (stereo not drawn) + CCn1c(-c2cccnc2C(C)OC)c2c3cc(ccc31)N1CCOC(CC(NC(=O)C(C(C)C)N(C)C(=O)C3(F)CCN(C(=O)C#CC(C)(C)N(C)C)CC3)C(=O)N3CCCC(N3)C(=O)OCC(C)(C)C2)C1', '%', 16.8),
  ('C[C@@H](NC(=O)c1ncnc(N)c1Cl)c1ncc(C(=O)Nc2cc(C(F)(F)F)c(Cl)cn2)s1 + CCn1c(-c2cc(N3CCN(C)CC3)cnc2C(C)OC)c2c3cc(ccc31)-c1csc(n1)CC(NC(=O)C1CC1C)C(=O)N1CCCC(N1)C(=O)OCC(C)(C)C2', '%', 10.4),
  ('Cc1nc(N2CCC3(CC2)COC(C)C3N)c(CO)nc1Sc1ccnc(N)c1Cl (stereo not drawn) + CCn1c(-c2cccnc2C(C)OC)c2c3cc(ccc31)N1CCOC(CC(NC(=O)C(C(C)C)N(C)C(=O)C3(F)CCN(C(=O)C#CC(C)(C)N(C)C)CC3)C(=O)N3CCCC(N3)C(=O)OCC(C)(C)C2)C1', '%', 94.6),
  ('CC1(O)CCCC1n1c(=O)c(C(F)F)cc2cnc(NC3CCN(S(C)(=O)=O)CC3)nc21 (stereo not drawn) + CCn1c(-c2cccnc2C(C)OC)c2c3cc(ccc31)N1CCOC(CC(NC(=O)C(C(C)C)N(C)C(=O)C3(F)CCN(C(=O)C#CC(C)(C)N(C)C)CC3)C(=O)N3CCCC(N3)C(=O)OCC(C)(C)C2)C1', '%', 86.1);

---

System: 485368-065-R3-J5-PDC spheroids with HUVEC/MSC, viability
Test: Anticancer human tumor 485368-065-R3-J5-PDC cell line growth inhibition [RAS];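 further: spheroids exposed to agents for seven days before readout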
Settings: second compound 1 µM; first compound 0.1 µM; hits give low values
# class assignment by measured viability, T/C: Low: < 20%; Medium: ≥ 20% and < 90%; High: ≥ 90%

INSERT INTO assay_data (compound, qualitative_label) VALUES
  ('O=C(c1ccc(F)c(F)c1Nc1ccc(I)cc1F)N1CC(O)([C@@H]2CCCCN2)C1 + C#Cc1c(F)ccc2cc(O)cc(-c3ncc4c(N5CC6CCC(C5)N6)nc(OCC56CCCN5CC(F)C6)nc4c3F)c12', 'Medium'),
  ('NC1c2ccccc2OC12CCN(c1cnc3c(N4CCCc5ncccc54)n[nH]c3n1)CC2 (centres undefined) + C=CC(=O)N1CCN(c2nc(OCC3CCCN3C)nc3c(F)c(-c4nc(N)cc(C)c4C(F)(F)F)c(Cl)cc23)C(C)C1', 'Medium'),
  ('C[C@@H](NC(=O)c1ncnc(N)c1Cl)c1ncc(C(=O)Nc2cc(C(F)(F)F)c(Cl)cn2)s1 + C#Cc1c(F)ccc2cc(O)cc(-c3ncc4c(N5CC6CCC(C5)N6)nc(OCC56CCCN5CC(F)C6)nc4c3F)c12', 'High'),
  ('Nc1ccn(C2OC(CO)C(O)C2(F)F)c(=O)n1 (centres undefined) + C#Cc1c(F)ccc2cc(O)cc(-c3ncc4c(N5CC6CCC(C5)N6)nc(OCC56CCCN5CC(F)C6)nc4c3F)c12', 'Low'),
  ('CC(=O)OC12COC1CC(O)C1(C)C(=O)C(O)C3=C(C)C(OC(=O)C(O)C(NC(=O)OC(C)(C)C)c4ccccc4)CC(O)(C(OC(=O)c4ccccc4)C21)C3(C)C (centres undefined) + C=CC(=O)N1CCN(c2nc(OCC3CCCN3C)nc3c(F)c(-c4nc(N)cc(C)c4C(F)(F)F)c(Cl)cc23)C(C)C1', 'Low'),
  ('CC(=O)OC12COC1CC(O)C1(C)C(=O)C(O)C3=C(C)C(OC(=O)C(O)C(NC(=O)OC(C)(C)C)c4ccccc4)CC(O)(C(OC(=O)c4ccccc4)C21)C3(C)C (centres undefined) + C#Cc1c(F)ccc2cc(O)cc(-c3ncc4c(N5CC6CCC(C5)N6)nc(OCC56CCCN5CC(F)C6)nc4c3F)c12', 'Low'),
  ('Cc1nc(N2CCC3(CC2)COC(C)C3N)c(CO)nc1Sc1ccnc(N)c1Cl (centres undefined) + C=CC(=O)N1CCN(c2nc(OCC3CCCN3C)nc3c(F)c(-c4nc(N)cc(C)c4C(F)(F)F)c(Cl)cc23)C(C)C1', 'High'),
  ('O=C(c1ccc(F)c(F)c1Nc1ccc(I)cc1F)N1CC(O)([C@@H]2CCCCN2)C1 + C=CC(=O)N1CCN(c2nc(OCC3CCCN3C)nc3c(F)c(-c4nc(N)cc(C)c4C(F)(F)F)c(Cl)cc23)C(C)C1', 'Medium');
